Data credit: patent US8324212B2

endpoint: IC50 (µM)
Give your result in µM as a bare value.

Reported IC50 (HCV NS5B RdRp genotype 1b (Hepatitis C virus genotype 1b, UniProt Q9WMX2)) for entry CNC(=O)c1c(-c2ccc(F)cc2)nn2nccc(-c3cc(C(=O)NC4(c5ccccc5)CC4)ccc3C)c12 [Example 2] is 3.06

Reported IC50 (HCV NS5B RdRp genotype 1b (Hepatitis C virus genotype 1b, UniProt Q9WMX2)) for entry CNC(=O)c1c(-c2ccc(F)cc2)nn2ncc(-c3cc(C(=O)NC4(c5ccccc5)CC4)c(OC)cc3C)cc12 [Example 3] is 0.011

Reported IC50 (HCV NS5B RdRp genotype 1b (Hepatitis C virus genotype 1b, UniProt Q9WMX2)) for entry CNC(=O)c1c(-c2ccc(F)cc2)nn2ncc(-c3cc(C(=O)NC4(c5ncccn5)CC4)c(OC)cc3C)cc12 [Example 4] is 0.014
